- assay system: T1, human receptor tyrosine kinase like orphan receptor 1 (ROR1) (human, UniProt Q01973 30-937)
- T1 construct: whole, on cells; Target in all assays is endogenous ROR1 on human tumor cell lines; the cell line is named under assay; also called cell surface ROR1
- T1 sequence (Q01973 30-937): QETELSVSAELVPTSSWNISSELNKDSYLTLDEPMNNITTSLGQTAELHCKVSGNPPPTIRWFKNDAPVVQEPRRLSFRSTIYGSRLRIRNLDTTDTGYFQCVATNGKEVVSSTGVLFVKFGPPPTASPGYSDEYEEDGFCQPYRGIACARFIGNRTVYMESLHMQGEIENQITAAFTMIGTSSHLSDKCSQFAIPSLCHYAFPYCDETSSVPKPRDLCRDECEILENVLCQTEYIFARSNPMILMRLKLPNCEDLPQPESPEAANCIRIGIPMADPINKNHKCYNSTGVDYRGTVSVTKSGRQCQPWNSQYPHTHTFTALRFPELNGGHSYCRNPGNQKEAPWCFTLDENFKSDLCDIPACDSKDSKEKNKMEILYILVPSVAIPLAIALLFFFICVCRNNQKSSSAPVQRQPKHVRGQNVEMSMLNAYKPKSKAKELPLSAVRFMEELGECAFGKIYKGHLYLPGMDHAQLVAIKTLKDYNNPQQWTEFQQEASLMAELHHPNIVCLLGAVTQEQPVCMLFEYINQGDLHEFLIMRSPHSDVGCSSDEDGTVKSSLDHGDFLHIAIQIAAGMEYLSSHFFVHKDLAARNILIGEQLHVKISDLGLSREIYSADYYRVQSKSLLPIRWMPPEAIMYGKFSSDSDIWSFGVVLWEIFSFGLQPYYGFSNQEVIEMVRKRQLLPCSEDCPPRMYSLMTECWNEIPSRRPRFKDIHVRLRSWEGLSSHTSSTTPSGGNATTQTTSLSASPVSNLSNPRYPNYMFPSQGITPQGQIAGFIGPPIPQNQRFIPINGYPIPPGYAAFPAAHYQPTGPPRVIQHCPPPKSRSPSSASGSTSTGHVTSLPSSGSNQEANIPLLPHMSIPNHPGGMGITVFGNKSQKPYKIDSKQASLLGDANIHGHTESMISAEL
- assay summary: flow cytometry on Jeko-1 cells (FIG. 3A)
EC50 values for the binders below.

{"columns": ["binder", "EC50, µg/mL"],
 "data": [
  ["ADC-T (antibody, V domains shown, MAL-VC-PAB-MMAE bonded via cysteine residues of the antibody (positions not stated), Antibody-drug conjugate of 4A5; also called 4A5-MAL-VC-PAB-MMAE) VH: EVKLVESGGGLVKPGGSLKLSCAASGFTFSSYAMSWVRQIPEKRLEWVASISRGGTTYYPDSVKGRFTISRDNVRNILYLQMSSLRSEDTAMYYCGRYDYDGYYAMDYWGQGTSVTVSS VL: DIKMTQSPSSMYASLGERVTITCKASPDINSYLSWFQQKPGKSPKTLIYRANRLVDGVPSRFSGGGSGQDYSLTINSLEYEDMGIYYCLQYDEFPYTFGGGTKLEMK", 0.193],
  ["ADC-A (antibody, human IgG1, kappa, V domains shown, MC-VC-PAB-MMAE bonded via cysteine residues of the antibody (chain and positions not stated); MC-VC-PAB-MMAE bonded via cysteine residues of the antibody (chain and positions not stated); DAR 3.89 to 5.09, Antibody-drug conjugate of Ab1; also called Ab1-MC-VC-PAB-MMAE) VH: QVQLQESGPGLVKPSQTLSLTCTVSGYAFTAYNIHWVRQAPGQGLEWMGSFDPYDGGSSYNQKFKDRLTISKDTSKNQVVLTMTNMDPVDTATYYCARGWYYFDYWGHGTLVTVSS VL: DIVMTQTPLSLPVTPGEPASISCRASKSISKYLAWYQQKPGQAPRLLIYSGSTLQSGIPPRFSGSGYGTDFTLTINNIESEDAAYYFCQQHDESPYTFGEGTKVEIKR", 0.0216],
  ["Ab1 (antibody, human IgG1, kappa, V domains shown, also called unconjugated Ab1; parental antibody Ab1) VH: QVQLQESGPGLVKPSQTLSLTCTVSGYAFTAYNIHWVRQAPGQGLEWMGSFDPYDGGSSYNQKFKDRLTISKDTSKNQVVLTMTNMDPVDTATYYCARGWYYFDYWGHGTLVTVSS VL: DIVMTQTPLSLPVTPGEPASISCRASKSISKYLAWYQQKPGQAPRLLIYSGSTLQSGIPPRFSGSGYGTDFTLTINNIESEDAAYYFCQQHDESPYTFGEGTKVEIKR", 0.0164],
  ["4A5 (antibody, V domains shown, also called anti-ROR1 antibody 4A5) VH: EVKLVESGGGLVKPGGSLKLSCAASGFTFSSYAMSWVRQIPEKRLEWVASISRGGTTYYPDSVKGRFTISRDNVRNILYLQMSSLRSEDTAMYYCGRYDYDGYYAMDYWGQGTSVTVSS VL: DIKMTQSPSSMYASLGERVTITCKASPDINSYLSWFQQKPGKSPKTLIYRANRLVDGVPSRFSGGGSGQDYSLTINSLEYEDMGIYYCLQYDEFPYTFGGGTKLEMK", 0.121]
]}
